ASSAY NAME: viability loss in pontine glioma line – cell-based, SU-DIPG-IV, MIPE4.0, CellTiter-Glo, qHTS, dose response (AID 1347063);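 also: compound exposure lasted 48 hours before the viability readout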
MEASUREMENT CONDITIONS: CellTiter-Glo ATP luminescence
Inconclusive results are not listed. The source made the active and inactive calls. The limit is not given here; nearly all actives have AC50 up to about 30 µM.
Your answer must be one of the following: 1.0 (active), 0.0 (inactive)

* O=C1NC(=O)[C@@H](c2cn3c4c(cccc24)CCC3)[C@@H]1c1c[nH]c2ccccc12 | 1.0
* CC1(C)C(=O)N(CCN2CCC(C(=O)c3ccc(F)cc3)CC2)c2ccccc21 | 0.0
* O=C(O)[C@H]1O[C@H](Oc2cc3oc(-c4ccccc4)cc(=O)c3c(O)c2O)[C@H](O)[C@@H](O)[C@@H]1O | 0.0
* N#CCNC(=O)c1ccc(-c2ccnc(Nc3ccc(N4CCOCC4)cc3)n2)cc1 | 1.0
* C[C@@H](Cc1cc2c(c(C(N)=O)c1)N(CCCO)CC2)NCCOc1ccccc1OCC(F)(F)F | 0.0
* CC1(C)CCC(CN2CCN(c3ccc(C(=O)NS(=O)(=O)c4ccc(NCC5CCOCC5)c([N+](=O)[O-])c4)c(Oc4cnc5[nH]ccc5c4)c3)CC2)=C(c2ccc(Cl)cc2)C1 | 1.0
* Cc1ccc(C(=O)Nc2ccc(CN3CCN(C)CC3)c(C(F)(F)F)c2)cc1C#Cc1cnc2cccnn12 | 1.0
* CS(=O)(=O)N1CCN(Cc2cc3nc(-c4cccc5[nH]ncc45)nc(N4CCOCC4)c3s2)CC1 | 1.0

Record request — test call for CC(=O)Oc1cc2c(s1)CCN(C(C(=O)C1CC1)c1ccccc1F)C2 (configuration not stated)
1.0

Write down the call the test reported for this molecule. Item: CC[C@H]1OC(=O)[C@H](C)C(=O)[C@H](C)[C@@H](O[C@H]2O[C@H](C)C[C@H](N(C)C)[C@H]2O)[C@](C)(OC)C[C@@H](C)C(=O)[C@H](C)[C@H]2N(CCCCn3cnc(-c4cccnc4)c3)C(=O)O[C@]12C
0.0

Would you mind telling me which call this test gave C=CCNc1c(O)cc2c(O)c1C[C@@H](C)C[C@H](OC)[C@H](O)[C@@H](C)/C=C(/C)[C@H](OC(N)=O)[C@@H](OC)/C=C\C=C(\C)C(=O)N2 ?
1.0

What was the test verdict on CNC(=O)CN1CCC(Oc2cc3c(Nc4cccc(Cl)c4F)ncnc3cc2OC)CC1 ?
0.0

Could you please tell me the result logged for CC(C)c1cnn2c(NCc3ccccc3)cc(N[C@@H](CO)[C@H](O)CO)nc12 in this assay?
1.0

For COc1cc2nc(-c3cc(F)ccc3O)nc(N[C@@H]3CNC[C@H]3C(C)(C)O)c2cc1OC , what call appears in the results of this test?
1.0

How did this test come out for Nc1nc(NCCNc2ncc(-n3ccnc3)c(-c3ccc(Cl)cc3Cl)n2)ccc1[N+](=O)[O-] ?
1.0

Dear colleague, could you share the recorded outcome for O=C(Cc1ccc(-c2ccc(OCCN3CCOCC3)cc2)cn1)NCc1ccccc1 when you have a moment?
1.0

Outcome logged for C[C@H](NCc1ccc(OCc2cccc(F)c2)cc1)C(N)=O in this assay:
1.0

Check the results log: what was the call for CC(C)(OCc1nn(Cc2ccccc2)c2ccccc12)C(=O)O ?
0.0

Record request — test call for CC(O)(C#Cc1ccc2c(c1)N(c1nc(N)ncc1Cl)CC2)c1nccs1 (configuration not stated)
1.0

Data origin, for the record: PubChem BioAssay
